system: P. falciparum 3D7 trophozoites; test: Metabolomic fingerprint profiling LC-MS; format: cell-based, Plasmodium falciparum; conditions: metabolite a-ketoglutarate, S2 Table Metabolomics
a-ketoglutarate by entry:
I only need the number, thanks.

Check out these entries, answers already filled in.
Cc1ccc(Nc2nc(NCCO)c3ccccc3n2)cc1C	-0.3007
O=C(NCC(c1ccsc1)N1CCCCCC1)c1ccc(C(F)(F)F)cc1 (stereo not drawn)	-0.6396
CCc1ccc(Nc2cc(C)c3ccc(O)cc3n2)cc1	-0.893
Cc1ccc(-c2cc3nc4c(c(O)n3n2)CCCC4)cc1	-0.5175
CCn1c(CN2CCN(Cc3ccccc3)CC2)nc2cc(NC(=O)c3cccs3)ccc21	-0.8941

Task: a-ketoglutarate lookup needed for `CCOC(=O)c1c(C)n(-c2ccc(Cl)cc2)c2ccc(OC(=O)C=Cc3ccccc3)cc12` , thanks.
Result: -0.01449

Task: Which a-ketoglutarate reading was recorded for the compound `Cc1cc(Nc2ccc(Cl)cc2)n2nc(C(F)(F)F)nc2n1` ?
Result: -0.5125

Task: Given `CCN(CC)CCNc1ccnc2cc(Cl)ccc12` , state its recorded a-ketoglutarate.
Result: -1.012

Task: Returns the measured a-ketoglutarate for the input compound. Input: `COc1ccc(-n2ccnc2SCC(=O)Nc2cc(C)ccc2C)c(OC)c1`
Result: 0.866

---

test system: P. falciparum 3D7 trophozoites; experiment: Metabolomic fingerprint profiling LC-MS; assay type: cell-based, Plasmodium falciparum; conditions: metabolite citrate/isocitrate; S2 Table Metabolomics, change in metabolite level after compound treatment
Use -0.2 as the dividing line for citrate/isocitrate, with the line itself on the yes (1) side and lower values as no (0).

Consider the following illustrative entries.
COc1ccccc1CNC(=O)CCn1c(=O)[nH]c2ccccc2c1=O	no (0)
Oc1ccccc1CNCC12CC3CC(CC(C3)C1)C2	no (0)
CCCN(CCC)CC(O)COc1ccccc1C(=O)Nc1ccccc1 (stereo not drawn)	no (0)

Task: Say whether `COc1ccccc1CNC(=O)CCn1c(=O)[nH]c2ccsc2c1=O` shows citrate/isocitrate of -0.2 or more.
Result: no (0)

Task: Record `O=[N+]([O-])c1ccc(C=NNc2nc3ccccc3[nH]2)cc1` ; criterion: citrate/isocitrate no lower than -0.2. Met?
Result: yes (1)

Task: Does citrate/isocitrate meet or surpass -0.2 for `COc1cc(OC)c(N(C)C(=O)c2cc3c(s2)-c2ccccc2S(=O)(=O)C3)cc1Cl` ?
Result: yes (1)

Task: Exam item: decide whether the reported citrate/isocitrate for `CSc1ccccc1C(=O)Nc1nc(-c2ccccn2)cs1` is at least -0.2.
Result: yes (1)

Task: Quick check: does `CN1CCN(c2ccc(Nc3c4ccccc4nc4ccccc34)cc2)CC1` have citrate/isocitrate greater than or equal to -0.2?
Result: no (0)

Task: Say whether `CCOc1ccc(-c2nonc2NC(=O)c2cccc(C)c2)cc1OCC` shows citrate/isocitrate of -0.2 or more.
Result: no (0)

---

system: P. falciparum 3D7 trophozoites; test: Metabolomic fingerprint profiling LC-MS; type: cell-based, Plasmodium falciparum; conditions: metabolite level change after treatment
metric: 4-phosphopantothenate
Give the figure by itself; no unit, no explanation.

CCN1CCN(Cc2ccc(NC(=O)c3cc4ccc5cccnc5c4[nH]3)cc2)CC1	0.07924
O=C1C(O)=C([C@H]2CC[C@H](c3ccc(Cl)cc3)CC2)C(=O)c2ccccc21 [Atovaquone, reference compound]	-0.2334

Task: // query 4-phosphopantothenate value for entry `CCOC(=O)c1c(NC(=O)c2ccccc2)sc2c(O)c(CN(CC)CC)ccc12`
Result: -0.594

Task: I would be grateful if you could share the reported 4-phosphopantothenate for CCCCCCOC(=O)C1=C(C)NC(=O)NC1c1ccccc1F (stereo not drawn) .
Result: -0.1203

Task: Item `COc1ccccc1CNC(=O)CCn1c(=O)[nH]c2ccsc2c1=O` has what recorded 4-phosphopantothenate?
Result: -0.02128

Task: Record request: 4-phosphopantothenate value, item `Cc1ccc(N2C3c4ccccc4N(S(=O)(=O)c4ccc(C)cc4)C2c2ccccc2N3S(=O)(=O)c2ccc(C)cc2)cc1`
Result: 0.1099

Data credit: paper PMC4965013
